# Tested on: Escherichia coli IAI1
# Method Summary: growth (OD595) fold change vs plate DMSO controls (fold change (ratio)); higher = more growth
# Condition Set: 20 µM; incubation time: 27 h, anaerobic, 37 °C
Where a name gives a salt, the structure may show the parent alone.
Recorded Endpoint: growth
Form: value (number only, do not type unit).

For orientation, consider the following solved cases.
Reported growth for COC[C@@H](NC(C)=O)C(=O)NCc1ccccc1 [Lacosamide] was 1.01

Reported growth for "Clc1ccc(C(c2ccc(Cl)cc2)C(Cl)(Cl)Cl)cc1" was 0.974

Reported growth for "CNC(=O)c1cc(C#N)cc(C)c1NC(=O)c1cc(Br)nn1-c1ncccc1Cl" was 0.996

Reported growth for CCCSP(=O)(OCC)Oc1ccc(Br)cc1Cl (stereo not given) was 0.968

Reported growth for N#Cc1nn(-c2c(Cl)cc(C(F)(F)F)cc2Cl)c(N)c1[S+]([O-])C(F)(F)F (stereo not given) was 0.982

Reported growth for "CCN(CC)N=O" was 1.04

Reported growth for "COC(=O)N(OC)c1ccccc1COc1ccn(-c2ccc(Cl)cc2)n1" was 0.988

Reported growth for "CCc1cccc(C)c1N(C(=O)CCl)[C@@H](C)COC" was 1.01

Continuing:
Reported growth for "CCc1nn(C)c(C(=O)NCc2ccc(Oc3ccc(C)cc3)cc2)c1Cl" was 1.02

Reported growth for CN[C@@H]1C[C@@H](c2ccc(Cl)c(Cl)c2)c2ccccc21 [Indatraline hydrochloride] was 1.06

----------
Catalogue of compounds with associated fold change of Cadaverine concentration
# System: Escherichia coli IAI1
# Method Summary: fold change of Cadaverine concentration vs plate DMSO controls (fold change (ratio)); higher = more amine produced, active = hit call of the paper (significant change in both replicates, either direction)
# Condition Set: 20 µM; incubation time: 27 h, anaerobic, 37 °C
Structures can show the parent of a compound that is named as a salt.
Form: value (number only, do not type unit).

Reported fold change of Cadaverine concentration for O=NN(CCO)CCO [DMNA (N-nitrosodiethanolamine)] was 0.978

Reported fold change of Cadaverine concentration for CC[C@@]1([C@@H]2O[C@@H]([C@H]3O[C@@](O)(CO)[C@H](C)C[C@@H]3C)C[C@@H]2C)CC[C@H]([C@]2(C)CC[C@]3(C[C@H](O)[C@@H](C)[C@@H]([C@@H](C)[C@@H](OC)[C@H](C)C(=O)O)O3)O2)O1 [Monensin sodium salt] was 0.966

Reported fold change of Cadaverine concentration for CN(C)C(=O)Oc1cc(OC(=O)N(C)C)cc(C(O)CNC(C)(C)C)c1 (configuration not stated) [Bambuterol hydrochloride] was 1

Reported fold change of Cadaverine concentration for CCN(C)C(=O)Oc1cccc([C@H](C)N(C)C)c1 [Rivastigmine] was 0.937

Reported fold change of Cadaverine concentration for "COc1ncc(F)c2nc(S(=O)(=O)Nc3c(F)cccc3F)nn12" was 0.998

Reported fold change of Cadaverine concentration for CN1C(=O)COc2c(C(=O)NC3CN4CCC3CC4)cc(Cl)cc21 (configuration not stated) [Azasetron hydrochloride] was 0.512

Reported fold change of Cadaverine concentration for O=C(O)C(F)(F)C(F)(F)C(F)(F)C(F)(F)C(F)(F)C(F)(F)C(F)(F)F [PFOA (Perfluorooctanoic acid)] was 1.02

----------
# Test system: Ruminococcus gnavus DSM 108212
# Method Summary: fold change of Tryptamine concentration vs plate DMSO controls (fold change (ratio)); higher = more amine produced, active = hit call of the paper (significant change in both replicates, either direction)
# Condition Set: 20 µM; incubation time: 27 h, anaerobic, 37 °C
Counter-ions that a name gives are not always drawn.
Recorded Endpoint: fold change of Tryptamine concentration
Form: value (number only, do not type unit).

Reported fold change of Tryptamine concentration for O=[N+]([O-])c1ccc2ccc3cccc4ccc1c2c34 [1-Nitropyrene] was 0.952

Reported fold change of Tryptamine concentration for CN/C(=N/CC1CCOC1)N[N+](=O)[O-] (stereo not given) was 1.01

Reported fold change of Tryptamine concentration for COc1cccc(C2(O)CCCCC2CN(C)C)c1 (stereo not given) [Tramadol hydrochloride] was 0.925

Reported fold change of Tryptamine concentration for CNCC(O)c1ccc(O)cc1 (stereo not given) [Synephrine] was 1.05

# context switch: different compound, same fold change of Tryptamine concentration
Reported fold change of Tryptamine concentration for O=C(O)C(F)(F)C(F)(F)C(F)(F)C(F)(F)C(F)(F)C(F)(F)C(F)(F)C(F)(F)C(F)(F)F [PFDeA (Perfluorodecanoic acid)] was 0.999

----------
# Test system: Ruminococcus gnavus DSM 108212
# Method Summary: growth (OD595) fold change vs plate DMSO controls (fold change (ratio)); higher = more growth
# Condition Set: 20 µM; incubation time: 27 h, anaerobic, 37 °C
Where a name gives a salt, the structure may show the parent alone.
Note to self: values exactly at 1 are yes. So growth at or above 1 is yes, below is no.

Lookup: Is it the case that "CC1(C(=O)Nc2ccc(O)c(Cl)c2Cl)CCCCC1" has growth reaching or exceeding 1?
Found: yes

Lookup: Is it the case that "CCCCCCCCCCCCN=C(N)N" has growth reaching or exceeding 1?
Found: yes

Lookup: Is it the case that CN(C)[C@@H]1C(=O)C(C(N)=O)=C(O)[C@@]2(O)C(=O)C3=C(O)c4c(O)cccc4[C@@](C)(O)[C@H]3C[C@@H]12 [Tetracycline hydrochloride] has growth reaching or exceeding 1?
Found: no

Continuing:
Lookup: Is it the case that CC(Cc1ccc(O)cc1)NCC(O)c1cc(O)cc(O)c1 (stereo not given) [Fenoterol hydrobromide] has growth reaching or exceeding 1?
Found: yes

Lookup: Is it the case that "O=C(Nc1ccccc1-c1ccc(Cl)cc1)c1cccnc1Cl" has growth reaching or exceeding 1?
Found: no

Lookup: Is it the case that C#CCN(C)[C@H](C)Cc1ccccc1 [Selegiline hydrochloride] has growth reaching or exceeding 1?
Found: no

----------
# Test system: Ruminococcus gnavus DSM 108212
# Method Summary: fold change of Tryptamine concentration vs plate DMSO controls (fold change (ratio)); higher = more amine produced, active = hit call of the paper (significant change in both replicates, either direction);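 for the amine columns active = adjusted P below 0.05 in both replicates with a change the same way and a mean fold change under 0.8 or over 1.25; inactive = the rest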
# Condition Set: 20 µM; incubation time: 27 h, anaerobic, 37 °C
I would appreciate it if you answered using one of these outcomes: t for active, f for inactive

# example entries with known answers
Lookup: What classification did C[C@@H]1CC[C@H]2[C@@H](C)C(=O)O[C@@H]3O[C@@]4(C)CC[C@@H]1[C@]32OO4 [Artemisinin] end up with in this test?
Found: f

Lookup: What classification did "COP(=O)(OC)OC=C(Cl)Cl" end up with in this test?
Found: f

Lookup: What classification did "Nc1c([N+](=O)[O-])ccc(Oc2ccccc2)c1Cl" end up with in this test?
Found: f

Lookup: What classification did CC(C)N(CCC(C(N)=O)(c1ccccc1)c1ccccn1)C(C)C (stereo unspecified) [Disopyramide] end up with in this test?
Found: f

Lookup: What classification did "N#Cc1cc(Br)c(O)c(Br)c1" end up with in this test?
Found: f

Lookup: What classification did OC(Cc1ccccc1Cl)(Cn1nc[nH]c1=S)C1(Cl)CC1 (stereo unspecified) end up with in this test?
Found: f

Continuing:
Lookup: What classification did C[C@@H]1C[C@@H]([C@H](O)CC2CC(=O)NC(=O)C2)C(=O)[C@@H](C)C1 [Cycloheximide] end up with in this test?
Found: f

Lookup: What classification did Cc1cccc(C)c1NC(=O)CN1CCCC1=O [Nefiracetam] end up with in this test?
Found: f

----------
Catalogue of compounds with associated fold change of 2-Phenylethylamine concentration
# Tested on: Ruminococcus gnavus DSM 108212
# Method Summary: fold change of 2-Phenylethylamine concentration vs plate DMSO controls (fold change (ratio)); higher = more amine produced, active = hit call of the paper (significant change in both replicates, either direction)
# Condition Set: 20 µM; incubation time: 27 h, anaerobic, 37 °C
Counter-ions that a name gives are not always drawn.
Form: value (number only, do not type unit).

Reported fold change of 2-Phenylethylamine concentration for "Fc1ccc(Oc2ccnc3cc(Cl)cc(Cl)c23)cc1" was 0.915

Reported fold change of 2-Phenylethylamine concentration for "O=C(O)C(F)(F)C(F)(F)C(F)(F)C(F)(F)C(F)(F)C(F)(F)C(F)(F)C(F)(F)C(F)(F)F" was 0.962

Reported fold change of 2-Phenylethylamine concentration for CCCN1C[C@H](CSC)C[C@@H]2c3cccc4[nH]cc(c34)C[C@H]21 [Pergolide mesylate] was 1.04

Reported fold change of 2-Phenylethylamine concentration for "N#CCNC(=O)c1cnccc1C(F)(F)F" was 0.951

Reported fold change of 2-Phenylethylamine concentration for C[N+]1(C)CCOC(O)(c2ccc(-c3ccc(C4(O)C[N+](C)(C)CCO4)cc3)cc2)C1 (configuration not stated) [Hemicholinium bromide] was 1.07

Continuing:
Reported fold change of 2-Phenylethylamine concentration for "CC(C)N1C(=O)c2ccccc2NS1(=O)=O" was 1.03

Reported fold change of 2-Phenylethylamine concentration for "C[N+](C)(C)CCCl" was 1.06
